target: cyclin D1/cdk 4 enzyme (Homo sapiens); construct: made in house; host or cells: Sf9 insect cells, recombinant baculovirus; test: CDK4 ELISA kinase assay (phospho-Rb ser 795 detection); type: biochemical; details: In Vitro Enzyme Assay, cyclin D1/cdk 4, read-out: CDK4 IC50
Sequence (P11802 whole entry, species assumed): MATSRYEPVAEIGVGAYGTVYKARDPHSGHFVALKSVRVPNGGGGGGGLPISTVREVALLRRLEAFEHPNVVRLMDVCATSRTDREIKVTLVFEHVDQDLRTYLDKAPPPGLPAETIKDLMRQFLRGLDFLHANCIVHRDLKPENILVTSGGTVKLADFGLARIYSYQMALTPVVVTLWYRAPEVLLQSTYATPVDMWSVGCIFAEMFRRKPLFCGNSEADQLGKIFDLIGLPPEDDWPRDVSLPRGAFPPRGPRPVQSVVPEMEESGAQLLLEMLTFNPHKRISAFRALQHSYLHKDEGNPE
Sequence (P24385 whole entry partner, species assumed): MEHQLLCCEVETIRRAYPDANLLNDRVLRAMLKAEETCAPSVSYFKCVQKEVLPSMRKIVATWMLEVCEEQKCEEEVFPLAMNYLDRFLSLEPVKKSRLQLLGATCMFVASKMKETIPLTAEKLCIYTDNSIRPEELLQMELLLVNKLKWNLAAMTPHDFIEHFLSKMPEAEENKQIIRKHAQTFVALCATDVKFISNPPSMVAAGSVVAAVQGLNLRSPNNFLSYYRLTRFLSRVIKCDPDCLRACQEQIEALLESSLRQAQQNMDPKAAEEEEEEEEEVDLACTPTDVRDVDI
pIC50: −log10 of the molar value.
READOUT TYPE: pIC50

Example entries begin here.
>>> df
                         chemical_structure  quantitative_result
0  COc1cccc(-c2ccc3c(c2)C(=CNCc2ccc(O)c(O)c2)C(=O)NC3=O)c1                 6.57
1  CN1CCN(c2ccc(N/C=C3\C(=O)NC(=O)c4ccc(-c5ccoc5)cc43)nn2)CC1                 6.09
2  O=C1NC(=O)c2ccccc2C1=CNNc1cccc(C(=O)O)c1                 4.49

I. Cc1ccccc1-c1ccc2c(c1)C(=CNCc1ccc(O)c(O)c1)C(=O)NC2=O
II. CN1CCN(c2ccc(NC=C3C(=O)NC(=O)c4ccc(C=Cc5ccc(S(N)(=O)=O)cc5)cc43)cc2)CC1
III. CC(C)c1cccc(-c2ccc3c(c2)C(=CNCc2ccc(O)c(O)c2)C(=O)NC3=O)c1
Could you please sort these 3 entries by pIC50 from high to low? The labels, placed in the requested order, form the answer.
II, I, III
(II: 7.15, I: 5.91, III: 5.30)
